molecular target: PD-1/PD-L1 (Homo sapiens, UniProt Q9NZQ7); assay: PD-1/PD-L1 NFAT reporter assay (co-culture of aAPC-PD-L1 CHO cells and Jurkat cells overexpressing PD-1, NFAT luciferase); details: co-culture incubated for 6 hrs at 37° C.; luciferase under NFAT control
Sequence (Q9NZQ7 19-290): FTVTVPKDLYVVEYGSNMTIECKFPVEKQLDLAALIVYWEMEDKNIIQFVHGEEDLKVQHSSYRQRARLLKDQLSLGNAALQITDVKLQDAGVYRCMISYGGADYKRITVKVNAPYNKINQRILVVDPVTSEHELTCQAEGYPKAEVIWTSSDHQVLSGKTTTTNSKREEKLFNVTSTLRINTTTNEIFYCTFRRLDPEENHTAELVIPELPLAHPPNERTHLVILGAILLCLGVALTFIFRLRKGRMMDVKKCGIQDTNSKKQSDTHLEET
pEC50: −log10 of the molar value.
recorded-endpoint: pEC50

The cases that follow already have their pEC50 on record.
compound="Cc1c(COc2cc(OCc3cncc(C#N)c3)c(CN[C@@](C)(CO)C(=O)O)cc2Cl)cccc1-c1cccc(-c2ccc3c(c2)CNCC3NC(=O)NC2CC2)c1C (stereo partly drawn) [Compound 14]" value=7.16
compound="Cc1c(COc2cc(OCc3cncc(C#N)c3)c(CNC[C@@H](O)CC(=O)O)cc2Cl)cccc1-c1cccc(-c2ccc3c(c2)CNCC3NC(=O)NCC#N)c1C (stereo partly drawn) [Compound 17]" value=6.89
compound="CNC(=O)NC1CNCc2cc(-c3cccc(-c4cccc(-c5ccc(CNC[C@@H]6CCC(=O)N6)c(OC)n5)c4Cl)c3Cl)ccc21 (stereo partly drawn) [Compound 12]" value=6.78
compound="Cc1c(COc2cc(OCc3cncc(C#N)c3)c(CN[C@@](C)(CO)C(=O)O)cc2Cl)cccc1-c1cccc(-c2ccc3c(c2)CNCC3NC(=O)NCC#N)c1C (stereo partly drawn) [Compound 16]" value=6.99
compound="COc1nc(-c2cccc(-c3cccc(-c4cc5c(s4)CCNC5)c3Cl)c2Cl)ccc1CNC[C@@H]1CCC(=O)N1 [Compound 33]" value=6.77

a: COc1nc(O[C@H]2CCc3c(-c4cccc(-c5nc6c(s5)CCNC6)c4Cl)cccc32)c(C(F)(F)F)cc1CN1CC[C@@H](C(=O)O)C1 [Compound 2]
b: COc1nc(-c2cccc(-c3cccc(-c4cc5c(cn4)CNC5)c3Cl)c2Cl)ccc1CNC[C@@H]1CCC(=O)N1 [Compound 23]
c: CNC(=O)N[C@@H]1CNCc2cc(-c3cccc(-c4cccc(COc5cc(OCc6cncc(C#N)c6)c(CN[C@@](C)(CO)C(=O)O)cc5Cl)c4C)c3C)ccc21 [Compound 15]
Input: Form: Sort by [pEC50] Order [ ascending ] Thanks in advance for listing the labels in the requested order.
Output: a, b, c
(a: 5.49, b: 6.69, c: 7.23)

1: COc1nc(-c2cccc(-c3cccc(-c4ccc5c(c4)OCCNC5)c3Cl)c2Cl)ccc1CNC[C@@H](O)CC(=O)O [Compound 6]
2: Cc1c(COc2cc(OCc3cncc(C#N)c3)c(CN[C@@](C)(CO)C(=O)O)cc2Cl)cccc1-c1cccc(-c2ccc3c(c2)NCCNC3)c1C [Compound 4]
3: COc1nc(-c2cccc(-c3cccc(-c4cc5c(s4)CCNC5)c3Cl)c2Cl)ccc1CN1CC2(CCC(=O)N2)C1 [Compound 32]
Input: Sort ascending by pEC50. Record the ranking as a list of labels in the requested order.
Output: 3, 1, 2
(3: 6.54, 1: 6.77, 2: 7.05)

P: Cc1c(COc2cc(OCc3cc(Cl)cc(C#N)c3)c(CN[C@@](C)(CO)C(=O)O)cc2Cl)cccc1-c1cccc(-c2ccc3c(c2)CNCC3)c1C [Compound 7]
Q: Cc1c(COc2cc(OCc3cncc(C#N)c3)c(CN[C@@](C)(CO)C(=O)O)cc2Cl)cccc1-c1cccc(-c2ccc3c(c2)CNCC3N)c1C (stereo partly drawn) [Compound 18]
Input: Input pair: P , Q . Output: entry with lower pEC50. # respond with the chosen item's label
Output: P
